Data provenance: patent US10975068B2

target: full-length human RORγt (Homo sapiens (Human), UniProt P51449); assay: RORγt (full-length human) reporter assay, Conditions B or C; type: cell-based; conditions: Conditions B or C; read-out: RORγt (FL) Reporter Assay B or C, IC50
Sequence (P51449 other isoform, or with tags, fused parts or gaps): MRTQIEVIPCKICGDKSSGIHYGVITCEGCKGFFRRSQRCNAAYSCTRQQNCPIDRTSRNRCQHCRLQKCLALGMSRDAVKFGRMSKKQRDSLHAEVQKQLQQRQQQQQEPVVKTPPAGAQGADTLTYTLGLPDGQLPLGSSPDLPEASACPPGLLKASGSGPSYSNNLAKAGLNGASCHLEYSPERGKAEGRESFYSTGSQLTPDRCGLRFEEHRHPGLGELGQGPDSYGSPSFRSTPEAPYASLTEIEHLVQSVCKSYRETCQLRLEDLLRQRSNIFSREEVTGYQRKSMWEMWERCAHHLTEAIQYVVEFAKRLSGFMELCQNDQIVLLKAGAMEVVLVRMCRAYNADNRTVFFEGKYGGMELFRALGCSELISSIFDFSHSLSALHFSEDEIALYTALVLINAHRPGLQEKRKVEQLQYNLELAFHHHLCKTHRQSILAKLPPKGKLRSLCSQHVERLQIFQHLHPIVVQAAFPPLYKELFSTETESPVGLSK
pIC50: −log10 of the molar value.
// reported pIC50 per item

# molecule, pIC50
measured = [
    ("C[C@H]1CCCCN1C(=O)c1nc(C(=O)NCC(C)(C)O)sc1-c1cnc(NC(C)(C)C)cc1C(F)(F)F [Example 80]", 8.33),
    ("C[C@H]1CCCCN1C(=O)c1nc(C(=O)NCC(C)(C)O)sc1-c1cnc(NC2CCCCC2)cc1C(F)F [Example 34]", 8.16),
    ("C[C@@H](O)[C@@H](C)NC(=O)c1nc(C(=O)N2CCC[C@@H]2C)c(-c2cnc(NC(C)(C)C)cc2C(F)(F)F)s1 (relative stereo) [Example 237]", 7.51),
    ("C[C@H](Nc1cc(C(F)F)c(-c2sc(C(=O)N[C@H]3C[C@H](O)C3)nc2C(=O)N2CC(F)(F)C[C@@H]2C)cn1)C(F)(F)F [Example 191]", 7.49),
]

* * *

biological target: human RORγt ligand binding domain (RORγt LBD) (Homo sapiens (Human)); test: RORγt ThermoFluor® assay (thermal shift binding); settings: read-out: ThermoFluor® Assay, Kd
Sequence (P51449 other isoform, or with tags, fused parts or gaps): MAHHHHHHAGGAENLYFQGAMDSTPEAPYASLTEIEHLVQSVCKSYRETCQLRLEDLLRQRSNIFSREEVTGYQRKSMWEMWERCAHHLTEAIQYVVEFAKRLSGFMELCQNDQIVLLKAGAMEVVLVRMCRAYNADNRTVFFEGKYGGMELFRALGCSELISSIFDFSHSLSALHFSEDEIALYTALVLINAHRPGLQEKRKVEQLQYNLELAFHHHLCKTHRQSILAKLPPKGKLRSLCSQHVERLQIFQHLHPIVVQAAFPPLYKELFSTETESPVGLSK

# molecule, Kd, nM
records = [
    ("C[C@@H](NC(=O)c1nc(C(=O)N2C3CCC2CC3)c(-c2cnc(N[C@@H](C3CC3)C(F)(F)F)cc2C(F)F)s1)C(C)(C)O [Example 316]", 2.9),
    ("C[C@H](Nc1cc(C(F)F)c(-c2sc(C(=O)NCC(C)(C)O)nc2C(=O)N2C3CCC2CC3)cn1)C1CC1 [Example 55]", 7.9),
    ("C[C@H]1CCCN1C(=O)c1nc(C(=O)NCC(C)(C)O)sc1-c1cncc(NC2CCCCC2)c1C#N [Comparator Example 2, reference compound]", 5800),
]

* * *

molecular target: full-length human RORγt (Homo sapiens (Human), UniProt P51449); test: RORγt (full-length human) reporter assay, Conditions B or C; type: cell-based; settings: at 3 μM compound concentration; read-out: RORγt (FL) Reporter Assay B or C, % inhibition
quantity.measured: inhibition at 3 µM

# molecule, target.entity, result
records = [
    ("C[C@H]1CCCN1C(=O)c1nc(C(=O)NC2CN(C)C2)sc1-c1cnc(NC(C)(C)C)cc1C(F)(F)F", "full-length human RORγt (Homo sapiens (Human), UniProt P51449)", "94%"),
    ("CC[C@H](Nc1cc(C(F)F)c(-c2sc(C(=O)N[C@@H]3CC[C@@H](O)C3)nc2C(=O)N2CCC[C@@H]2C)cn1)C(F)(F)F", "full-length human RORγt (Homo sapiens (Human), UniProt P51449)", "100%"),
    ("C[C@H](NC(=O)c1nc(C(=O)N2CCC[C@@H]2C)c(-c2cnc(NC3(C)CCC3)cc2C(F)F)s1)C(C)(C)O", "full-length human RORγt (Homo sapiens (Human), UniProt P51449)", "106%"),
    ("C[C@H](Nc1cc(C(F)F)c(-c2sc(C(=O)N[C@@H]3CC[C@H]3O)nc2C(=O)N2C3CCC2CC3)cn1)C(F)(F)F (relative stereo)", "full-length human RORγt (Homo sapiens (Human), UniProt P51449)", "113%"),
    ("C[C@H]1CC(F)(F)CN1C(=O)c1nc(C(=O)NC2CCS(=O)(=O)CC2)sc1-c1cnc(NC2(C)CCC2)cc1C(F)F", "full-length human RORγt (Homo sapiens (Human), UniProt P51449)", "87%"),
    ("C[C@@H](CO)NC(=O)c1nc(C(=O)N2CCC[C@@H]2C)c(-c2cnc(NC(C)(C)C)cc2C(F)(F)F)s1", "full-length human RORγt (Homo sapiens (Human), UniProt P51449)", "99%"),
    ("C[C@H]1CC(F)(F)CN1C(=O)c1nc(C(=O)N[C@H](C)C(C)(C)O)sc1-c1cnc(NC(C)(C)C)cc1C(F)F", "full-length human RORγt (Homo sapiens (Human), UniProt P51449)", "123%"),
    ("C[C@H]1CCCN1C(=O)c1nc(C(=O)N[C@H]2C[C@@](C)(O)C2)sc1-c1cnc(NC(C)(C)C)cc1C(F)(F)F", "full-length human RORγt (Homo sapiens (Human), UniProt P51449)", "105%"),
    ("C[C@H]1CCCN1C(=O)c1nc(C(=O)NCc2nnn[nH]2)sc1-c1cnc(NC(C)(C)C)cc1C(F)(F)F", "full-length human RORγt (Homo sapiens (Human), UniProt P51449)", "88%"),
    ("CC[C@H](Nc1cc(C(F)F)c(-c2sc(C(=O)N3CC4(CCO4)C3)nc2C(=O)N2CCC[C@@H]2C)cn1)C(F)(F)F", "full-length human RORγt (Homo sapiens (Human), UniProt P51449)", "95%"),
    ("CC1(Nc2cc(C(F)F)c(-c3sc(C(=O)NC4CCS(=O)(=O)CC4)nc3C(=O)N3C4CCC3CC4)cn2)CCC1", "full-length human RORγt (Homo sapiens (Human), UniProt P51449)", "81%"),
    ("C[C@H]1CC(F)(F)CN1C(=O)c1nc(C(=O)NCC(C)(C)O)sc1-c1cnc(NCC2(C(F)(F)F)CC2)cc1C(F)F", "full-length human RORγt (Homo sapiens (Human), UniProt P51449)", "99%"),
    ("C[C@H]1CCCN1C(=O)c1nc(C(=O)N[C@H](C)C(C)(C)O)sc1-c1cnc(NC(C)(C)C)cc1C(F)(F)F", "full-length human RORγt (Homo sapiens (Human), UniProt P51449)", "102%"),
]

* * *

biological target: human RORγt ligand binding domain (RORγt LBD) (Homo sapiens (Human)); experiment: RORγt ThermoFluor® assay (thermal shift binding); details: read-out: ThermoFluor® Assay, Kd
pKd: −log10 of the molar value.
Threshold check on pKd: at or above 9 gives label 1, strictly below gives label 0.

# molecule, classification
rows = [
    ("CC[C@@H](Nc1cc(C(F)F)c(-c2sc(C(=O)NCC(C)(C)O)nc2C(=O)N2C3CCC2CC3)cn1)C1CC1 (stereo in doubt)", "label 0"),
    ("C[C@H](Nc1cc(C(F)F)c(-c2sc(C(=O)NC3CS(=O)(=O)C3)nc2C(=O)N2CC(F)(F)C[C@@H]2C)cn1)C(F)(F)F", "label 0"),
    ("C[C@H](Nc1cc(C(F)(F)F)c(-c2sc(C(=O)NCC(C)(C)O)nc2C(=O)N2CCCC[C@@H]2C)cn1)C1CC1", "label 1"),
    ("CC[C@H](Nc1cc(C(F)F)c(-c2sc(C(=O)N[C@@H](C)[C@@H](C)O)nc2C(=O)N2CCC[C@@H]2C)cn1)C(F)(F)F (relative stereo)", "label 0"),
    ("CC[C@H](Nc1cc(C(F)F)c(-c2sc(C(=O)N[C@@H]3CC[C@H]3O)nc2C(=O)N2C3CCC2CC3)cn1)C(F)(F)F (relative stereo)", "label 0"),
]

* * *

biological target: full-length human RORγt (Homo sapiens (Human)); test: RORγt (full-length human) reporter assay, Conditions B or C; format: cell-based; settings: read-out: RORγt (FL) Reporter Assay B or C, IC50
Recorded IC50 by entry
quantity.measured: IC50

# compound, result
records = [
    ("CC[C@H](Nc1cc(C(F)F)c(-c2sc(C(=O)N[C@H](C)C(C)(C)O)nc2C(=O)N2CCC[C@@H]2C)cn1)C(F)(F)F", "0.047 µM"),
    ("O=C(NC1CCS(=O)(=O)CC1)c1nc(C(=O)N2C3CCC2CC3)c(-c2cnc(N[C@@H](C3CC3)C(F)(F)F)cc2C(F)F)s1", "0.048 µM"),
    ("C[C@H]1CCCN1C(=O)c1nc(C(=O)N2C[C@@H]3C[C@H]2CO3)sc1-c1cnc(NC(C)(C)C)cc1C(F)(F)F", "0.082 µM"),
    ("C[C@H]1CCCN1C(=O)c1nc(C(=O)N[C@H](C)C(C)(C)O)sc1-c1cnc(NC2(C)CCC2)cc1C(F)F", "0.1 µM"),
    ("CC[C@H](Nc1cc(C(F)F)c(-c2sc(C(=O)NC3CN(S(C)(=O)=O)C3)nc2C(=O)N2CCC[C@@H]2C)cn1)C(F)(F)F", "0.092 µM"),
    ("C[C@H](Nc1cc(C(F)F)c(-c2sc(C(=O)N[C@@H]3CC[C@H]3O)nc2C(=O)N2C3CCC2CC3)cn1)C(F)(F)F (relative stereo)", "0.12 µM"),
    ("CC[C@H](Nc1cc(C(F)F)c(-c2sc(C(=O)N3CCOCC3)nc2C(=O)N2CCC[C@@H]2C)cn1)C(F)(F)F", "0.034 µM"),
    ("O=C(N[C@@H]1CCC[C@H]1O)c1nc(C(=O)N2C3CCC2CC3)c(-c2cnc(N[C@@H](C3CC3)C(F)(F)F)cc2C(F)F)s1", "0.01 µM"),
    ("C[C@H]1CCCN1C(=O)c1nc(C(=O)N[C@H](C)C(C)(C)O)sc1-c1cnc(NC(C)(C)C)cc1C(F)(F)F", "0.04 µM"),
    ("C[C@H]1CCCN1C(=O)c1nc(C(=O)N2C[C@@H](O)[C@H](F)C2)sc1-c1cnc(NC(C)(C)C)cc1C(F)(F)F", "0.059 µM"),
    ("CNC(=O)c1nc(C(=O)N2CCC[C@@H]2C)c(-c2cnc(NC(C)(C)C)cc2C(F)(F)F)s1", "0.15 µM"),
    ("C[C@H]1CCCN1C(=O)c1nc(C(=O)N2CC(C)(O)C2)sc1-c1cnc(NC(C)(C)C)cc1C(F)(F)F", "0.11 µM"),
    ("C[C@H]1CCCN1C(=O)c1nc(C(=O)NCC(C)(O)C(F)(F)F)sc1-c1cnc(NC(C)(C)C)cc1C(F)(F)F (single isomer, unassigned) [Example 358]", "0.015 µM"),
]
